experiment: protein stability index of a GFP-peptide fusion (GPS, HEK-293T) (PSI 1-6); higher = more stable; conditions: treatment: MLN4924 1 uM, 8 h; c terminus: a fixed tail appended;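 further: 24-mer peptide tiles fused after GFP, lentivirally expressed, FACS-sorted into six equal bins by GFP/DsRed ratio, decoded by Illumina sequencing, PSI is the read-weighted mean bin number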
Please enter fulfilled where protein stability index is greater than or equal to 3, and not fulfilled where it is lower.

Solved entries:
> print(dat)
                      residue.codes  discrete.label
1   YLRCIQSEVSFEGAYGNLKRLYDK [SMG5]   not fulfilled
2  RLNLTNTKQNFFSQTPILQALQHV [INTS3]   not fulfilled
3   PSLGDSLESIPSLSQSPEPGRRGD [RTN2]       fulfilled

Task: Determine whether this sequence has protein stability index no lower than 3: STALERPSFLSQTGHGVSRGPSPV [FCHO1]
Result: fulfilled

Task: Determine whether this sequence has protein stability index no lower than 3: MTTDFDLSLDNSPLLQSIHQLDFV [TRIM9]
Result: not fulfilled

Task: Determine whether this sequence has protein stability index no lower than 3: LQRQAEQNPTASYYNVVLLRYQFS [FCHO1]
Result: not fulfilled

====

test: protein stability index of a GFP-peptide fusion (GPS, HEK-293T) (PSI 1-6); higher = more stable; conditions: treatment: MLN4924 1 uM, 8 h; c terminus: a fixed tail appended
Please enter rule met where protein stability index is greater than or equal to 3, and rule not met where it is lower.

> print(dat)
                       residue.codes  discrete.label
1   SQEYQILLDVKTRLEQEIATYRRL [KRT16]    rule not met
2   VDIVTGHARLSDIWAKTPPITRKA [DHCR7]        rule met
3  LKAHAEEKPPSGTKEKKHQCDHCE [PLAGL1]        rule met
4   EEGFMTAELAGVIKRLWKDSGVQA [GNAI1]        rule met
5   TMGLRHLPVVNAVGEIVGIITRHN [CLCN6]    rule not met

Task: Determine whether this sequence has protein stability index no lower than 3: FIYDCDPFTRRYYKEKFGITDLPR [EFHC1]
Result: rule not met

Task: Determine whether this sequence has protein stability index no lower than 3: VKNSNRYDVEMTDELVGLPFSSHT [FBXO34]
Result: rule met

Task: Determine whether this sequence has protein stability index no lower than 3: PHYICTLKQPHLLLEKYSYYLISG [PNLIPRP1]
Result: rule not met

====

test: protein stability index of a GFP-peptide fusion (GPS, HEK-293T) (PSI 1-6); higher = more stable; details: treatment: MLN4924 1 uM, 8 h; c terminus: a fixed tail appended
ENDPOINT NAME: protein stability index
Quick one: just the number, no unit, thanks!

See these solved cases before continuing.
> print(dat)
                        residue.codes  obs.value
1  APPSTRTSHSLPESSVPSTVGCSS [PLEKHN1]       5.23
2   LQHVSEPQAHQESTRGAARPAQAI [SPACA9]       5.04
3     PPHVLISRPSAPFTEASMMMSLTK [ESR2]       3.44

Task: Could you tell me which protein stability index is on file for RYADLEAVNRARRPLARPIKRGDI [RHOBTB1] ?
Result: 3.83

Task: Could you tell me which protein stability index is on file for KGKTAVDTVFRFDPRYNKWMQVAS [KLHL13] ?
Result: 2.94

Task: Could you tell me which protein stability index is on file for GGGLLKYSNLLVRDFRPTDQEEIK [TENT5C] ?
Result: 3.75

Task: Could you tell me which protein stability index is on file for IRHQRIHTGEKPYTCHECGDSFSH [ZNF263] ?
Result: 2.7

Task: Could you tell me which protein stability index is on file for QKRLKSKLLDHDNVKYLKKILDEL [GDAP1] ?
Result: 2.19

Task: Could you tell me which protein stability index is on file for QASKLRASKEEKEDWLSHALSRKK [FBF1] ?
Result: 4.54

Task: Could you tell me which protein stability index is on file for DQLYRRKKDNHALVRETDELRRNH [ELOA2] ?
Result: 4.48

Task: Could you tell me which protein stability index is on file for NLLSPLLTGTESPFDLEQQWQDLM [NFE2L1] ?
Result: 3.17

Task: Could you tell me which protein stability index is on file for ERITILRGNHESRQITQVYGFYDE [PPP2CA] ?
Result: 3.1

Task: Could you tell me which protein stability index is on file for EKIWRPNRVFSLQDLCCRAIVSCT [RAB40C] ?
Result: 2.88

Task: Could you tell me which protein stability index is on file for PSTTPPAHSSSNTIRSGISPNLNV [SASS6] ?
Result: 4.44

Task: Could you tell me which protein stability index is on file for IIQFVESGDDKNSNYFSMDSMEGK [TRIM29] ?
Result: 3.71

Task: Could you tell me which protein stability index is on file for VNPLHVDSTWLLLRRIRAESGTKG [SLC25A39] ?
Result: 2.74

Task: Could you tell me which protein stability index is on file for SMAAVPTLELCHDELFADLFNSNH [CEBPD] ?
Result: 3.6

====

experiment: protein stability index of a GFP-peptide fusion (GPS, HEK-293T) (PSI 1-6); higher = more stable; conditions: treatment: DMSO; c terminus: a fixed tail appended
ENDPOINT NAME: protein stability index

> print(dat)
                       residue.codes            endpoint.name  obs.value
1    YPALREKSKKYSDVEVPASVTGYS [ADD1]  protein stability index       4.16
2   VDIVTGHARLSDIWAKTPPITRKA [DHCR7]  protein stability index       3.26
3  EQLQGFNTRVRELAQAAGFAPQTG [DNAAF3]  protein stability index       3.66
4    QNPKDCSKAKKLVCNINKGCGYGC [FUT8]  protein stability index       3.53
5  AVETRLSLLNMTFMKYVDSNLCCF [FBXO28]  protein stability index       2.99

Task: Could you tell me which protein stability index is on file for LIDHLALRARNYEYLIRLFQEWEA [TCF25] ?
Result: 2.1

Task: Could you tell me which protein stability index is on file for CSIGFAVRYLNAYTGIVLLRCRKE [POP5] ?
Result: 3.13

Task: Could you tell me which protein stability index is on file for GLSTEAEQPFIPVEVLVDLFLKEG [PRAME] ?
Result: 3.05

Task: Could you tell me which protein stability index is on file for TIFSASNYYEVGSNRGAYVKLGPA [PPEF2] ?
Result: 2.39

Task: Could you tell me which protein stability index is on file for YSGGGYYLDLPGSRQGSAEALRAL [PKD2L1] ?
Result: 2.5

Task: Could you tell me which protein stability index is on file for ERPPPPPSDDLTLLESSSSYKNLT [MCOLN1] ?
Result: 5

Task: Could you tell me which protein stability index is on file for TVRAMTHVINQGMAMYWGTSRWSS [KCNAB2] ?
Result: 2.91

Task: Could you tell me which protein stability index is on file for VVYVKHQAQIDQYLGLVRTHINAV [RTN1] ?
Result: 2.22

====

assay: protein stability index of a GFP-peptide fusion (GPS, HEK-293T) (PSI 1-6); higher = more stable; conditions: treatment: DMSO; c terminus: a fixed tail appended
Below, each entry is listed with its recorded protein stability index.
Quick one: just the number, no unit, thanks!

See these solved cases before continuing.
> print(dat)
                       residue.codes            endpoint.name  obs.value
1   CTPGGTTIYGLHALEQGGLRAATM [PYCR3]  protein stability index       2.36
2  LDVFGRGDNISDVSKFLEDDKWME [LUC7L3]  protein stability index       4.72

Task: Could you tell me which protein stability index is on file for LGSIFQQLAHMVKEQEETIQRIDE [STX5] ?
Result: 4.48

Task: Could you tell me which protein stability index is on file for CFVKDNPQKSYFIRLYGLQAGRLL [WAS] ?
Result: 2.49

Task: Could you tell me which protein stability index is on file for CQDQNVPVENFFVKCNGALINTSD [SDE2] ?
Result: 3.3

Task: Could you tell me which protein stability index is on file for KKVSEGPPLRLWRSVIEVPAVPEE [DLC1] ?
Result: 3.37

====

test: protein stability index of a GFP-peptide fusion (GPS, HEK-293T) (PSI 1-6); higher = more stable; settings: treatment: DMSO; c terminus: a fixed tail appended
Please enter Met where protein stability index is greater than or equal to 3, and Not met where it is lower.

Solved entries:
> print(dat)
                         residue.codes  discrete.label
1     WKVLTWLRYTLWIPLYPLGCLAEA [HACD3]         Not met
2  PLTGDKDDEEVDTHFASQEFFSAN [ADAMTSL2]             Met

Task: Determine whether this sequence has protein stability index no lower than 3: DSLGGSQEMVQRPQPHRNRAGLDL [TRAF3IP2]
Result: Met

Task: Determine whether this sequence has protein stability index no lower than 3: LRRESTSQKEMDKAETKTKKAAES [FCHO1]
Result: Met

Task: Determine whether this sequence has protein stability index no lower than 3: TLGREVMSPLQAMSSYTVAGRNVL [NLN]
Result: Met

Task: Determine whether this sequence has protein stability index no lower than 3: ELACPAERSGHVAVSDGRHMFVWG [KLHDC2]
Result: Not met

Task: Determine whether this sequence has protein stability index no lower than 3: IMLLDKNVPNPRIKLIDFGIAHKI [DAPK3]
Result: Not met

Task: Determine whether this sequence has protein stability index no lower than 3: MLTRRVLQLETVLEGVVSQIDAVG [PKD2L1]
Result: Not met

Task: Determine whether this sequence has protein stability index no lower than 3: RLGPYVLLEPEEGGRAYQALHCPT [TRIB3]
Result: Not met

Task: Determine whether this sequence has protein stability index no lower than 3: LPSNLLKKFRSSTSSSLGDKSEYL [KCNA4]
Result: Met
